Below, each entry is listed alongside its reported melting point.
Structures can show the parent of a compound that is named as a salt.

{"Compound": "CN1CCC(N(C(=O)C2CC2)c2cccc(NC(=O)c3ccc(F)cc3Cl)c2)CC1.Cl", "melting point": "133 to 136 °C"}
{"Compound": "CCCN1CCC(N(C)c2cccc(NC(=O)c3ccc(F)cc3)n2)CC1.Cl", "melting point": "84.7 °C"}
{"Compound": "C[C@@H]1C[C@H](Nc2cccc(NC(=O)c3ccc(F)cc3Cl)c2)CCN1.Cl", "melting point": "182 to 185 °C"}
{"Compound": "Cc1ccccc1C(=O)Nc1cccc(N(C)C2CCN(C)CC2)c1.Cl", "melting point": "82.4 °C"}
{"Compound": "CN1CCC(N(C)c2cccc(NC(=O)c3ccccc3C(F)(F)F)c2)CC1.Cl", "melting point": "84.5 °C"}
{"Compound": "CN1CCC(Nc2cccc(NC(=O)c3ccc(F)c(F)c3F)n2)CC1.Cl", "melting point": "231.4 °C (dec.)"}
{"Compound": "CN1CCC(N(C)c2cccc(NC(=O)c3ccccc3Cl)n2)CC1.Cl (hydrate or solvate)", "melting point": "90 to 92 °C"}
{"Compound": "CC(C)n1cc(CCN2CCC(N(C)c3cccc(NC(=O)c4ccc(F)cc4)n3)CC2)cn1.Cl", "melting point": "85.8 °C"}
{"Compound": "CN1CCC(N(C)c2cccc(NC(=O)C3CC3)n2)CC1.Cl (hydrate or solvate)", "melting point": "258 to 260 °C"}
{"Compound": "CN1CCC(N(C)c2cccc(NC(=O)c3ccc(F)cc3)c2)CC1.Cl", "melting point": "76.1 °C"}
{"Compound": "CN1CCC(Nc2cccc(NC(=O)c3c(F)cc(F)cc3F)c2)CC1.Cl.Cl", "melting point": "257 °C (dec.)"}
{"Compound": "CCN1CCC(N(C)c2cccc(NC(=O)c3ccc(F)cc3)n2)CC1.Cl", "melting point": "75.6 °C"}
{"Compound": "CN1CCC(N(C)c2cccc(NC(=O)c3ccc(F)cc3Cl)c2)CC1.Cl.Cl", "melting point": "172 °C"}
{"Compound": "CN(c1cccc(NC(=O)c2ccc(F)cc2Cl)n1)C1CCN(CC2CC2)CC1.Cl", "melting point": "257.5 °C"}
{"Compound": "CN1CCC(N(C)c2cc(F)cc(NC(=O)c3ccc(F)cc3)c2)CC1 (as salt: hydrochloric acid salt)", "melting point": "175 °C"}
{"Compound": "CN1CCC(Nc2cccc(NC(=O)c3ccccc3OC(F)(F)F)c2)CC1.Cl.Cl", "melting point": "159 to 162 °C"}
{"Compound": "CN1CCC(N(C)c2cccc(NC(=O)c3ccc(F)cc3F)c2)CC1.Cl.Cl", "melting point": "165 to 168 °C"}
{"Compound": "CN1CCC(N(C)c2cc(F)cc(NC(=O)c3sccc3Br)c2)CC1 (as salt: hydrochloric acid salt)", "melting point": "175 to 180 °C"}
{"Compound": "CN1CCC(N(C)c2cccc(NC(=O)c3ccco3)n2)CC1.Cl (hydrate or solvate)", "melting point": "116 to 119 °C"}
{"Compound": "CC(C)n1cc(CCN2CCC(N(C)c3cccc(NC(=O)c4ccc(F)cc4Cl)n3)CC2)cn1.Cl", "melting point": "96.7 °C"}
{"Compound": "CN1CCC(N(C)c2cccc(NC(=O)c3ccccc3Br)c2)CC1.Cl.Cl", "melting point": "196 to 197 °C"}
{"Compound": "CN(c1cccc(NC(=O)c2ccc(F)cc2)n1)C1CCNCC1.Cl", "melting point": "152.4 °C"}
{"Compound": "CN1CCC(N(C)c2cccc(NC(=O)c3ccc(F)cc3Cl)n2)CC1.Cl (hydrate or solvate)", "melting point": "229 to 231 °C"}
{"Compound": "CN(c1cccc(NC(=O)c2ccc(F)cc2Cl)n1)C1CCNCC1.Cl", "melting point": "152.1 °C"}
{"Compound": "CN1CCC(Nc2cccc(NC(=O)c3c(F)cccc3Cl)c2)CC1.Cl.Cl", "melting point": "192 to 194 °C"}
{"Compound": "C[C@H]1C[C@@H](Nc2cccc(NC(=O)c3ccc(F)cc3Cl)c2)CCN1.Cl", "melting point": "202 °C (dec.)"}
{"Compound": "CN1CCC(Nc2cccc(NC(=O)c3ccccc3Br)c2)CC1.Cl.Cl", "melting point": "192 to 193 °C"}
{"Compound": "CN1CCC(N(C)c2cccc(NC(=O)c3c(F)cccc3Cl)n2)CC1.Cl (hydrate or solvate)", "melting point": "283 to 286 °C"}
{"Compound": "CN1CCC(N(C)c2cccc(NC(=O)C3CCC3)n2)CC1.Cl (hydrate or solvate)", "melting point": "258 to 260 °C"}
{"Compound": "CN1CCC(N(C)c2cccc(NC(=O)c3ccncc3)n2)CC1.Cl (hydrate or solvate)", "melting point": "274 to 277 °C"}
{"Compound": "CN1CCC(N(C)c2cccc(NC(=O)c3c(F)cccc3F)n2)CC1.Cl (hydrate or solvate)", "melting point": "308 °C (dec.)"}
{"Compound": "CN1CCC(Nc2cccc(NC(=O)c3c(F)cccc3F)c2)CC1.Cl.Cl", "melting point": "198 °C (dec.)"}
{"Compound": "CN1CCC(N(C)c2cccc(NC(=O)c3c(F)cc(F)cc3F)c2)CC1.Cl.Cl", "melting point": "199 to 200 °C"}
{"Compound": "CCC(=O)Nc1cccc(N(C)C2CCN(C)CC2)n1.Cl (hydrate or solvate)", "melting point": "216 to 218 °C"}
{"Compound": "CN1CCC(N(C)c2cccc(NC(=O)c3ccccc3OC(F)(F)F)n2)CC1.Cl (hydrate or solvate)", "melting point": "102 to 104 °C"}
